The values you see were collected from PubChem BioAssay AID2060898.

System: 616215-338-R-J1-PDC complex spheroid viability;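 note: spheroids exposed to agents for seven days before viability readout; 100% = DMSO vehicle control viability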
MEASUREMENT PROTOCOL: Anticancer human tumor 616215-338-R-J1-PDC patient-derived colon adenocarcinoma cell line growth inhibition [RAS]
SETTINGS: second compound 0.1 µM; first compound 0.000949 µM; active compounds read low
For each record, write down the corresponding viability, T/C.
Answers are plain numbers, in %.

See these solved cases before continuing.
1. CC1(C)CCC(Nc2ncc(C(F)(F)F)c(-c3c[nH]c4c(P(C)(C)=O)c(C#N)ccc34)n2)CN1 (centres undefined) + C#Cc1c(F)ccc2cc(O)cc(-c3ncc4c(N5CC6CCC(C5)N6)nc(OCC56CCCN5CC(F)C6)nc4c3F)c12	107
2. CCc1c2c(nc3ccc(O)cc13)-c1cc3c(c(=O)n1C2)COC(=O)[C@]3(O)CC + C=CC(=O)N1CCN(c2nc(OCC3CCCN3C)nc3c(F)c(-c4nc(N)cc(C)c4C(F)(F)F)c(Cl)cc23)C(C)C1	112
3. CCc1c2c(nc3ccc(O)cc13)-c1cc3c(c(=O)n1C2)COC(=O)[C@]3(O)CC + C#Cc1c(F)ccc2cc(O)cc(-c3ncc4c(N5CC6CCC(C5)N6)nc(OCC56CCCN5CC(F)C6)nc4c3F)c12	116

Next, consider the following compound.
Kindly note the recorded viability, T/C for CC1(C)CCC(Nc2ncc(C(F)(F)F)c(-c3c[nH]c4c(P(C)(C)=O)c(C#N)ccc34)n2)CN1 (centres undefined) + C=CC(=O)N1CCN(c2nc(OCC3CCCN3C)nc3c(F)c(-c4nc(N)cc(C)c4C(F)(F)F)c(Cl)cc23)C(C)C1 , which is 106
